Data origin: patent US12509447B2

# study_system: Tyk2 (Homo sapiens, UniProt P29597)
# Sequence (P29597 whole entry): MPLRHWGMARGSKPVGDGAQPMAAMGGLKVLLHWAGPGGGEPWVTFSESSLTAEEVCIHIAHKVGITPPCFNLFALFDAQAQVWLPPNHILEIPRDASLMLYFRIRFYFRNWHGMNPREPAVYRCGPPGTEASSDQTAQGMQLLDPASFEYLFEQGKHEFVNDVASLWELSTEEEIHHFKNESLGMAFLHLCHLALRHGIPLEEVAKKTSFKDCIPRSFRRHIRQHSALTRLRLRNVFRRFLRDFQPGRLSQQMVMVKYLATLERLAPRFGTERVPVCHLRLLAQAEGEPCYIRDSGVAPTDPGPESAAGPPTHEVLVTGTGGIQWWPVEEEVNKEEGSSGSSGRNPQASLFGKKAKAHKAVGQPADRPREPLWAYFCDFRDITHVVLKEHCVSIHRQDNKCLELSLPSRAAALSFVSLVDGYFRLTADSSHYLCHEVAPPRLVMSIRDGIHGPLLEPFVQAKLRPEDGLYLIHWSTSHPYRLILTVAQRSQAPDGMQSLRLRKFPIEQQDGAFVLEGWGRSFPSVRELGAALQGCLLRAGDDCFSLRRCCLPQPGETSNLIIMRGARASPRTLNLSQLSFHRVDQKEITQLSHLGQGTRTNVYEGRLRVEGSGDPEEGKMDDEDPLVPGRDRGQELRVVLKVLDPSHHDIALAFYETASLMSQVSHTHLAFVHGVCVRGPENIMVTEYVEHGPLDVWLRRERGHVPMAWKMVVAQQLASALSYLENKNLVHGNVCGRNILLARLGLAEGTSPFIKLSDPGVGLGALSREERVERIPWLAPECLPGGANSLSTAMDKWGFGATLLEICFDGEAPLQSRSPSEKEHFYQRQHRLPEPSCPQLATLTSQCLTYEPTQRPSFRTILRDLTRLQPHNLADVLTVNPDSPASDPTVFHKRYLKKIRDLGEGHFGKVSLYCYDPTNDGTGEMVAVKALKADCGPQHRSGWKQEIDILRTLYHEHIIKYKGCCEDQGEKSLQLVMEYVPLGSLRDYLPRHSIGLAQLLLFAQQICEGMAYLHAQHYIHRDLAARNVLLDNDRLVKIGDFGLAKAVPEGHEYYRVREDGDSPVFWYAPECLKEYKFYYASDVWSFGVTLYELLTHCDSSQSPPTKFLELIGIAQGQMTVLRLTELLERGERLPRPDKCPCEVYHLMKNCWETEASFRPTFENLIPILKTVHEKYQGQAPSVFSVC
# measurement_notes: Inhibition of JAK kinase activity, EZ Reader microfluidic phosphorylation of peptide substrate: Tyk2
# Format: biochemical
# particulars: Tyk2 kinase 1 nM; highest final concentration 10 μM, 1:3 serial dilution, 8 points, duplicates
IC50: recorded values
measurement_label: IC50

[[record]]
compound = "Cn1cc(Nc2nccc(-c3cnn(C4(CC#N)CN(S(=O)(=O)C5CC5)C4)c3)n2)cn1 [TDM-180766]"
measurement_label = "IC50"
result = "< 0.1 µM"

[[record]]
compound = "CCS(=O)(=O)N1CCC(n2cc(-c3ccnc(Nc4cnn(C)c4)n3)cn2)CC1 [TDM-180674]"
measurement_label = "IC50"
result = "1 to 10 µM"

[[record]]
compound = "Cn1cc(Nc2cc(-c3cnn(C4CN(C(=O)CC#N)C4)c3)ccn2)cn1 [TDM-180641]"
measurement_label = "IC50"
result = "≥ 10 µM"

[[record]]
compound = "CCS(=O)(=O)N1CCC(n2cc(-c3ccnc(Nc4cnn(C)c4)n3)cn2)C1 (centres unmarked) [TDM-180647]"
measurement_label = "IC50"
result = "≥ 10 µM"

[[record]]
compound = "Cn1cc(Nc2nccc(-c3ccn(C4(CC#N)CN(C(=O)[C@H]5CC5(F)F)C4)c3)n2)cn1 [TDM-180938]"
measurement_label = "IC50"
result = "0.1 to 1 µM"

[[record]]
compound = "CCCC(=O)N1CCC(n2cc(-c3ccnc(Nc4cnn(C)c4)n3)cn2)CC1 [TDM-180677]"
measurement_label = "IC50"
result = "≥ 10 µM"

[[record]]
compound = "CCCC(=O)N1CC(n2cc(-c3ccnc(Nc4cnn(C)c4)n3)cn2)C1 [TDM-180670]"
measurement_label = "IC50"
result = "≥ 10 µM"

[[record]]
compound = "Cn1cc(Nc2nccc(-c3cnn(C4(CC#N)CN(C(=O)CC(F)(F)F)C4)c3)n2)cn1 [TDM-180752]"
measurement_label = "IC50"
result = "0.1 to 1 µM"

